B1: SETD8 (parent)
chain: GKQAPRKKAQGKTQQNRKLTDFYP

Variants of: B1
assay procedure: protein stability index of a GFP-peptide fusion (GPS, HEK-293T) (PSI 1-6); higher = more stable;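 note: lentivirally expressed fusions sorted by FACS into six bins by GFP to DsRed ratio, PSI derived from sequencing read proportions per bin multiplied by bin number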
recorded conditions: c terminus: a fixed tail appended
Can you tell me protein stability index for the items I'm about to list?
// return a plain number; no unit text

The recorded protein stability index for entry Q3G equals 3.38

So, K18Q ? Its protein stability index was 3.45

Item: Q3I | protein stability index: 3.33

Entry T20N — recorded protein stability index = 3.61

Looking up A9M , I found its protein stability index recorded as 2.54

protein stability index in this record for K7E : 2.82

Reported protein stability index for R17E was 3.13

Please fill in: protein stability index reported for P5Y = 2.2

protein stability index reading for Q3K : 3.85

Lab note: measured protein stability index of K2Y was 2.95

Sure, the documented protein stability index for A9C is 2.77

Sample G1H ; protein stability index observed: 3

The reported protein stability index of the variant G1E was 3.79

Sample D21Y ; protein stability index observed: 2.97

Item: T20I | protein stability index: 3.29

Recorded protein stability index (variant L19Y ): 3.32
